The reported numbers originate from PubChem BioAssay (NCI).

# Test system: MOLT-4 leukemia
# Method Summary: NCI-60 one-dose screen, 48 h
# Condition: 10 µM unless noted
This is part of a sample that, as a whole, favours compounds with a hit. Of some 83,000 tested, about 20% had one in any assay. Activity calls are given as the source filed them. The calls were made as follows: active = growth percent below 10; inactive = the rest.
Outcome codes: yes (1) = active, no (0) = inactive

Compound	Assigned Label
Cc1nc2sc(C(=O)Nc3ccc(Cl)cc3)c(N)c2cc1C(O)c1ccccc1 (stereo not given)	no (0)
CC/C(Cc1ccccc1)=C(\c1ccc(OCCN2CCCCCC2)cc1)c1ccc(OC(=O)NCc2ccccc2)cc1	no (0)
CC1O[C@@H]2C[C@@](O)([C@H]1O)n1c3ccccc3c3c4c(c5c6ccccc6n2c5c31)C(=O)NC4=O (stereo not given in full)	no (0)
O=C(/C=C/C12c3ccccc3C(c3ccccc31)C1C(=O)NC(=O)C12)c1ccc(F)cc1 (stereo not given)	yes (1)
CC1(C)CC[C@]2(C(=O)O)CC[C@]3(C)C(=CC[C@@H]4[C@@]5(C)C[C@@H](Cc6cn([C@@H]7O[C@H](CO)[C@@H](O)[C@H](O)[C@H]7O)nn6)[C@H](O)C(C)(C)[C@@H]5CC[C@]43C)[C@@H]2C1	no (0)
COc1ccc2c(c1)c(-c1nonc1-c1c[nH]c3ccc(Br)cc13)cn2C	no (0)
COc1cc2nc(Nc3cccc(F)c3)nc(Nc3cc(C)[nH]n3)c2cc1OC	yes (1)
Cc1c2cnccc2c(C)c2c1c1cc(C3OCCCO3)ccc1n2C	yes (1)
O=C(CSc1nnc2sc(Nc3cccc(Cl)c3)nn12)c1ccc(F)cc1	no (0)
CCCCCCCCCCCCCCCCCCOc1ccccc1CC(=O)OCC[N+]1(C)CCOCC1	no (0)
CCn1cc(C2=C(c3cn(C)c4ncccc34)C(=O)NC2=O)c2cccnc21	no (0)
COc1ccc(-c2ccc(-c3ccc(C(=N)N)cn3)s2)cc1	no (0)
O=C(Cn1cc(CN2C(=O)c3ccccc3S2(=O)=O)nn1)Nc1cccc(Cl)c1	no (0)
O=C(c1ccc(Cl)cc1Cl)N1c2ccccc2Sc2ccccc21	no (0)
COC1=CC(c2ccc[nH]2)=N/C1=C\c1[nH]c(C)c(CC(=O)OCc2ccccc2)c1C	yes (1)
Cn1cccc1/C=C1\C(=O)Nc2ccccc21	no (0)
COc1cc(C(=O)/C=C/c2ccc(N3CCN(C)CC3)cc2)cc(OC)c1OC	no (0)
N#CC(C#N)N=Nc1ccc(Cl)cc1Cl	no (0)
COc1cc(/C=C/c2cc(/C=C/c3ccc(O)c(OC)c3)n(C(=O)Nc3ccc(F)cc3)n2)ccc1O	yes (1)
COc1ccc(-c2ccc(=O)oc2C#Cc2cc(OC)c(OC)c(OC)c2)cc1O	no (0)
CCCCCSB(SCCCCC)c1ccccc1	no (0)
O=C(CSc1nc2ccc([N+](=O)[O-])cc2[nH]1)Nc1ccc(Br)cc1	no (0)
Cc1cc2nc(-c3c(-c4ccc(F)cc4)nc4sccn34)[nH]c2cc1C	no (0)
CN1CCN(CCCOC(=O)c2c3c(n4ccccc24)C(=O)c2ncccc2C3=O)CC1	yes (1)
CCn1cc(C(=O)NN=C2CCCCCC2)c(=O)c2ccc(C)nc21	no (0)
CCCCCCCCn1ccc2cc(NC(=O)Cn3cc(CN4CCN(CC)CC4)nn3)ccc21	no (0)
O=c1nc(Nc2nc3ccccc3s2)[nH]c(=O)c2ccccc12	no (0)
CC1CN=C(c2cccc(-c3ccc(-c4ccccc4)o3)c2)N1 (stereo not given)	yes (1)
CCCCn1sc(=O)n(Cc2ccc(CNC(=O)OCc3ccc4c(Br)cc(Br)c(O)c4n3)cc2)c1=O	no (0)
Cc1cc(N2CCN(C)CC2)nc(NCc2cc(Nc3ccnc4cc(Cl)ccc34)ccc2F)n1	no (0)
CCCCCCCCn1ccc2cc(NC(=O)Cn3cc(CN4CCOCC4)nn3)ccc21	no (0)
O=C1Nc2ccc(F)cc2/C1=N/c1nnc(Sc2ccccc2)s1	no (0)
N#Cc1c(-c2ccccc2)c(C#N)c2c(C#N)c(N)nn2c1N	no (0)
O=C(CCl)Nc1ccc2c(Nc3cc(O)ccc3Cl)ncnc2c1	yes (1)
COc1ccc(OC)c(-c2cn3nc(-c4c[nH]c5ccc(Br)cc45)sc3n2)c1	no (0)
COc1cc2c(c(OC)c1OC)C(=O)N[C@@H]1[C@@H](O)[C@@H](O)[C@H](O)C[C@@H]21	no (0)
COC(c1ccc2ccccc2c1)C(C)C(F)F (stereo not given)	no (0)
CCN(CCO)CC(C)Nc1ccc([N+](=O)[O-])c2sc3ccccc3c(=O)c12 (stereo not given)	no (0)
COCC[C@H]1CCC/C=C/[C@@H]2C[C@H](O)C[C@H]2[C@H](O)/C=C/C(=O)O1	yes (1)
COc1cc(/C=C2\CN(S(=O)(=O)c3ccc(C)cc3)C/C(=C\c3cc(CN4CCCCC4)c(O)c(OC)c3)C2=O)cc(CN2CCCCC2)c1O	yes (1)
